# subject-of-test: human glucagon receptor (human, UniProt P47871 26-477)
# Sequence (P47871 26-477): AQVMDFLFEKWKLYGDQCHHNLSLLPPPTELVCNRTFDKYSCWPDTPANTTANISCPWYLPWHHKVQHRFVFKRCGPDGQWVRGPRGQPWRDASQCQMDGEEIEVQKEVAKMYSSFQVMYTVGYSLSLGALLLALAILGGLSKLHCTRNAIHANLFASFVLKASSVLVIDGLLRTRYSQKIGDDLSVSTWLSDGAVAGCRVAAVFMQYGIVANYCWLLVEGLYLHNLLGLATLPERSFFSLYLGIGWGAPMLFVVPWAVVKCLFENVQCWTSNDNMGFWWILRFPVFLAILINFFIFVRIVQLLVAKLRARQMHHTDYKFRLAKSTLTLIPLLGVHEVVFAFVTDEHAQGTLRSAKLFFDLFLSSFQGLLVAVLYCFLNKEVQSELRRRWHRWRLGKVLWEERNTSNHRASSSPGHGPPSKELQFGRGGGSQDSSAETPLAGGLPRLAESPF
# test-description: cell-based or functional assay
Numbered stars: 1 amine (or outer) side, 2 acyl side, 3 side chain; on linkers, the order of the positions; unused ones are H or OH. Square brackets hold non-standard residues; d marks the D form. Side chains are listed from the residue outwards. Ends that are not written are not given here. * marks the point of attachment. C18 diacid = O=C(O)CCCCCCCCCCCCCCCCC(=O)*; γGlu = O=C(O)[C@H](CCC(=O)[*:2])N[*:1]; Ac4c = NC1(C(=O)O)CCC1; AEEA = NCCOCCOCC(=O)O; Aib = CC(C)(N)C(=O)O
Class key for EC50 GlucR, CRE luciferase reporter gene assay in BHK cells values: b0 = under 5 pM, b1 = from 5 pM up to 60 pM, b2 = 60 pM and over

H[Ac4c]QGTFTSDLSKYLEERRARDFVQWLLK([Gly-Ser-Glu-Gly-Ser-γGlu-γGlu-C18 diacid])T-NH2	b2

Category of H[Aib]QGTFTSDLSKYLDKRAAREFVAWLLNT-NH2 (not fully specified) , please.
b2

Record H[Aib]QGTFTSDLSKYLDLKRAREFVQWLLK([γGlu-γGlu-AEEA-AEEA-γGlu-C18 diacid])T-NH2 — which class?
b1
